- TARGET SYSTEM: T1, CLL1 (UniProt Q5QGZ9 1-265, limits assumed)
- T1 sequence (looked up): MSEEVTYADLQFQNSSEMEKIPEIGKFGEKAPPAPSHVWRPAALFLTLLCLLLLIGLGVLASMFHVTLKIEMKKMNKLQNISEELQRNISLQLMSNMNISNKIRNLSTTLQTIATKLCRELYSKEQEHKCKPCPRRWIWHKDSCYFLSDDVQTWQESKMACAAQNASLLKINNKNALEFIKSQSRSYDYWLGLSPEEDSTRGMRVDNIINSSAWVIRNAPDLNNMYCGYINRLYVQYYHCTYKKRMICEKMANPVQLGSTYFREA
- MEASUREMENT DESCRIPTION: cell-based or functional assay
RECORDED METRIC: EC50 of cytotoxicity, short hinge CAR

anti-CLL1 (1075.7) Fab switch A (LCNT1) (Fab, V domains shown) VH: DIQLQESGPGLVKPSQSLSLTCSVTGYSITSAYYWNWIRQFPGNKLEWMGYISYDGRNNYNPSLKNRISITRDTSKNQFFLKLNSVTTEDTATYYCAKEGDYDVGNYYAMDYWGQGTSVTVSS VL: ENVLTQSPAIMSASPGEKVTMTCRASSNVISSYVHWYQQRSGASPKLWIYSTSNLASGVPARFSGSGSGTSYSLTISSVEAEDAATYYCQQYSGYPLTFGAGTKLELKR	1.5 pM
